- System: MCF7
- Assay: Antiproliferative activity against human MCF7 cells assessed as reduction in cell viability after 48 hrs by MTT assay
- Format: functional, cell-based
- Stated conditions: MCF7, 48 h
Attribute measured: log10 of IC50 (log10 of the value in µM)
// units: µM (pre-log); metric: IC50; scale: log10

Here are 5 compounds together with their reported answers.
COCOC/C1=C/C[C@](C)(CCC=C(C)C)/C=C/[C@@H](OC(=O)C=C(C)C)[C@](C)(O)/C=C/C1=O ... 0.49
CC(C)=CCC[C@]1(C)/C=C/[C@@H](OC(=O)C=C(C)C)[C@](C)(O)/C=C/C(=O)/C(COC(=O)c2ccc([N+](=O)[O-])cc2)=C\C1 ... -0.17
CC(C)=CCC[C@]1(C)/C=C/[C@@H](OC(=O)C(C)C)[C@](C)(O)/C=C/C(=O)/C(CO)=C\C1 ... 1.07
CC(C)=CCC[C@]1(C)/C=C/[C@@H](OC(=O)C=C(C)C)[C@](C)(O)/C=C/C(=O)/C(CN(C(C)C)C(C)C)=C\C1 ... -0.11
CC(C)=CCC[C@]1(C)/C=C/[C@@H](OC(=O)C=C(C)C)[C@](C)(O)/C=C/C(=O)/C(CCl)=C\C1 ... -0.21

For the compound CCCC(=O)O[C@@H]1/C=C/[C@@](C)(CCC=C(C)C)C/C=C(/CO)C(=O)/C=C/[C@@]1(C)O , what log10 of IC50 is on record?
0.78

For the compound C=C1/C=C/C(=O)/C(CO)=C\C[C@](C)(CCC=C(C)C)/C=C/[C@H]1OC(=O)C=C(C)C , what log10 of IC50 is on record?
0.44

For the compound CC(C)=CCC[C@]1(C)/C=C/[C@@H](OC(=O)C=C(C)C)[C@](C)(O)/C=C/C(=O)/C(CO[Si](C)(C)C(C)(C)C)=C\C1 , what log10 of IC50 is on record?
0.78

For the compound CO/N=C/C1=C/C[C@](C)(CCC=C(C)C)/C=C/[C@@H](OC(=O)C=C(C)C)[C@](C)(O)/C=C/C1=O , what log10 of IC50 is on record?
0.40

For the compound CCN(CC)C(=O)/C1=C/C[C@](C)(CCC=C(C)C)/C=C/[C@@H](OC(=O)C=C(C)C)[C@](C)(O)/C=C/C1=O , what log10 of IC50 is on record?
1.08

For the compound CC(=O)O[C@]1(C)/C=C/C(=O)/C(CO)=C\C[C@](C)(CCC=C(C)C)/C=C/[C@H]1OC(=O)C=C(C)C , what log10 of IC50 is on record?
0.37

For the compound CC(C)=CCC[C@]1(C)/C=C/[C@@H](OC(=O)C=C(C)C)[C@](C)(O)/C=C/C(=O)/C(Cn2cc(CO)nn2)=C\C1 , what log10 of IC50 is on record?
0.47

For the compound CC(C)=CCC[C@]1(C)/C=C/[C@@H](OC(=O)C=C(C)C)[C@](C)(O)/C=C/[C@@H](O)/C(CO)=C\C1 , what log10 of IC50 is on record?
1.24

For the compound CC(C)=CCC[C@]1(C)/C=C/[C@@H](OC(=O)c2ccccc2)[C@](C)(O)/C=C/C(=O)/C(CO)=C\C1 , what log10 of IC50 is on record?
1.43

For the compound CC(C)=CCC[C@]1(C)/C=C/[C@@H](OC(=O)C=C(C)C)[C@](C)(O)/C=C/C(=O)/C(C=O)=C\C1 , what log10 of IC50 is on record?
1.10

====

- Tested target: Luciferin 4-monooxygenase (Photinus pyralis) (UniProt P08659)
- Sequence (P08659 whole entry): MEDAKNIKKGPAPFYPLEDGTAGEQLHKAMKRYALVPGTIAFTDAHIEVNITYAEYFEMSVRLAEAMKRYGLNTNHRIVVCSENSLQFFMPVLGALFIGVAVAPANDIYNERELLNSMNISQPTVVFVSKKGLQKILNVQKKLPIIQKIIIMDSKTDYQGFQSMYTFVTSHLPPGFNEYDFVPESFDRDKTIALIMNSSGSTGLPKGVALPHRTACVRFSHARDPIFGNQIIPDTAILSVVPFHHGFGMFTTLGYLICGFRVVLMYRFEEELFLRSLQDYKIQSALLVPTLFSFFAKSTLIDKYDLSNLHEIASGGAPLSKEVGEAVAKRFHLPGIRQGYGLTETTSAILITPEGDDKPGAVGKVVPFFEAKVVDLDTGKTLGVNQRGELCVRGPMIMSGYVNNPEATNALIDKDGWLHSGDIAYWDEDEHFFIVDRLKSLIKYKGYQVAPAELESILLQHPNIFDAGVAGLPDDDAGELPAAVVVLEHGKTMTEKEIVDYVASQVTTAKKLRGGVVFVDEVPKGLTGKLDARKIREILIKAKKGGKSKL
- Assay: Inhibition of firefly luciferase activity using luciferin substrate at 10 uM after 30 mins by luminescence assay
The source made the active and inactive calls. The calls are words filed in the database; no cut-off is given here.
Attribute measured: inhibition

CC(C)=CCC[C@]1(C)/C=C/[C@@H](OC(=O)C=C(C)C)[C@](C)(O)/C=C/C(=O)/C(CF)=C\C1 ... inactive
CC(C)=CCC[C@]1(C)/C=C/[C@@H](OC(=O)C=C(C)C)[C@](C)(O)/C=C/C(=O)/C(CCl)=C\C1 ... inactive
CC(C)=CCC[C@]1(C)/C=C/[C@@H](OC(=O)C=C(C)C)[C@](C)(O)/C=C/C(=O)/C(CN2CCCC2)=C\C1 ... inactive

====

- Test system: Huh-7
- Assay: Antiproliferative activity against human HuH7 cells assessed as reduction in cell viability after 48 hrs by MTT assay
- Assay type: functional, cell-based
- Stated conditions: Huh-7, 48 h
Known IC50 of a selection of compounds
Provide the reading as a plain figure in nM.

CC(C)=CCC[C@]1(C)/C=C/[C@@H](OC(=O)C=C(C)C)[C@](C)(O)/C=C/C(=O)/C(CF)=C\C1 ... 540

For the compound CC(C)=CCC[C@]1(C)/C=C/[C@@H](OC(=O)C=C(C)C)[C@](C)(O)/C=C/C(=O)/C(CN2CCN(C)CC2)=C\C1 , what IC50 is on record?
860

====

- Organism: Oryctolagus cuniculus
- Assay: Inhibition of HSP90 in rabbit reticulocyte lysate assessed as decrease in HSP90-dependant refolding of firefly luciferase at 10 uM after 30 mins by luciferase gene based assay
Activity calls are given as the source filed them. No cut-off for these calls is given here.
Attribute measured: inhibition

CC(C)=CCC[C@]1(C)/C=C/[C@@H](OC(=O)C=C(C)C)[C@](C)(O)/C=C/C(=O)/C(CN2CCN(C)CC2)=C\C1 ... Active
CC(C)=CCC[C@]1(C)/C=C/[C@@H](OC(=O)C=C(C)C)[C@](C)(O)/C=C/C(=O)/C(CCl)=C\C1 ... Active
CC(C)=CCC[C@]1(C)/C=C/[C@@H](OC(=O)C=C(C)C)[C@](C)(O)/C=C/C(=O)/C(CN2CCCC2)=C\C1 ... < 50%

====

- Test system: MCF7
- Assay: Antiproliferative activity against human MCF7 cells assessed as reduction in cell viability after 48 hrs by MTT assay
- Format: functional, cell-based
- Stated conditions: MCF7, 48 h
Known pIC50 of a selection of molecules
Notebook: values listed as pIC50 are -log10 of the concentration (mol/L).

Here are 6 molecules together with their reported answers.
CC(C)=CCC[C@]1(C)/C=C/[C@@H](OC(=O)C=C(C)C)[C@](C)(O)/C=C/C(O)/C(C=O)=C\C1 (some centres not stated) ... 5.63
CC(C)=CCC[C@]1(C)/C=C/[C@@H](OC(=O)C=C(C)C)[C@](C)(O)/C=C/C(=O)/C(CN2CCN(C)CC2)=C\C1 ... 6.26
CC(C)=CCC[C@]1(C)/C=C/[C@@H](OC(=O)C=C(C)C)[C@](C)(O)/C=C/C(=O)/C(CO)=C\C1 ... 5.55
CO[C@]1(C)/C=C/C(=O)/C(CO)=C\C[C@](C)(CCC=C(C)C)/C=C/[C@H]1OC(=O)C=C(C)C ... 4.85
CC(C)=CCC[C@]1(C)/C=C/[C@@H](OC(=O)C=C(C)C)[C@](C)(O)/C=C/C(=O)/C(CN2CCOCC2)=C\C1 ... 6.28
CC(C)=CCC[C@]1(C)/C=C/[C@@H](OC(=O)C=C(C)C)[C@](C)(O)/C=C/C(=O)/C(C(=O)N2CCCC2)=C\C1 ... 4.76

# ---- query molecule ----
Hi! What's the reported pIC50 for COC/C1=C/C[C@](C)(CCC=C(C)C)/C=C/[C@@H](OC(=O)C=C(C)C)[C@](C)(OC)/C=C/C1=O on MCF7?
4.78

====

Known IC50 of a selection of molecules
- Test system: AGS
- Assay: Antiproliferative activity against human AGS cells assessed as reduction in cell viability after 48 hrs by MTT assay
- Type: functional, cell-based
Provide the reading as a plain figure in nM.

Hi! What's the reported IC50 for CC(C)=CCC[C@]1(C)/C=C/[C@@H](OC(=O)C=C(C)C)[C@](C)(O)/C=C/C(=O)/C(CO)=C\C1 on AGS?
9680

Hi! What's the reported IC50 for CC(C)=CCC[C@]1(C)/C=C/[C@@H](OC(=O)C=C(C)C)[C@](C)(O)/C=C/C(=O)/C(CN2CCN(C)CC2)=C\C1 on AGS?
860

Hi! What's the reported IC50 for CC(C)=CCC[C@]1(C)/C=C/[C@@H](OC(=O)C=C(C)C)[C@](C)(O)/C=C/C(=O)/C(CF)=C\C1 on AGS?
740

====

- System: A549
- Assay: Antiproliferative activity against human A549 cells assessed as reduction in cell viability after 48 hrs by MTT assay
- Format: functional, cell-based
- Stated conditions: A549, 48 h
Known IC50 of a selection of compounds
Provide the reading as a plain figure in µM.

Here are 4 compounds together with their reported answers.
COCOC/C1=C/C[C@](C)(CCC=C(C)C)/C=C/[C@@H](OC(=O)C=C(C)C)[C@](C)(O)/C=C/C1=O ... 2.98
CCN(CC)C/C1=C/C[C@](C)(CCC=C(C)C)/C=C/[C@@H](OC(=O)C=C(C)C)[C@](C)(O)/C=C/C1=O ... 0.13
CCN(CC)C(=O)/C1=C/C[C@](C)(CCC=C(C)C)/C=C/[C@@H](OC(=O)C=C(C)C)[C@](C)(O)/C=C/C1=O ... 11.3
CC(C)=CCC[C@]1(C)/C=C/[C@@H](OC(=O)C=C(C)C)[C@](C)(O)/C=C/C(O)/C(C=O)=C\C1 (some centres undefined) ... 0.57

For the compound CC(C)=CCC[C@]1(C)/C=C/[C@@H](OC(=O)C=C(C)C)[C@](C)(O)/C=C/C(=O)/C(CCl)=C\C1 , what IC50 is on record?
0.15

For the compound CC(C)=CCC[C@]1(C)/C=C/[C@@H](OC(=O)C=C(C)C)[C@](C)(O)/C=C/C(=O)/C(CO[Si](C)(C)C(C)(C)C)=C\C1 , what IC50 is on record?
4.2

For the compound CC(C)=CCC[C@]1(C)/C=C/[C@@H](OC(=O)C=C(C)C)[C@](C)(O)/C=C/C(=O)/C(CN2CCOCC2)=C\C1 , what IC50 is on record?
0.66

For the compound CC(C)=CCC[C@](C)(/C=C/[C@@H](OC(=O)C=C(C)C)[C@](C)(O)/C=C/C(=O)/C=C/N1CCN(C)CC1)CC=O , what IC50 is on record?
2.66
